Recorded measurements of speed of sound, one per entry
settings: 323.15 K; 101 kPa; Liquid; Sing-around technique in a fixed-path interferometer
Numbers after ± are expanded uncertainties.
Lab note: write values as number then unit, every time.

Before answering, review these 3 worked examples.
| item smiles | speed of sound |
| --- | --- |
| NCCO | 1637.9 ± 1.3 m/s |
| OCCN(CCO)CCO | 1570.6 ± 1.3 m/s |
| CN(CCO)CCO | 1493.4 ± 2.1 m/s |

**Q:** Returns the measured speed of sound for the input compound. Input: `CC(C)(N)CO`
**A:** 1386.9 ± 5 m/s

---

details: 318.15 K; 101 kPa; Liquid; Vibrating tube method
± gives the expanded uncertainty stated by the source.
Measured mass density, listed per entry.

Reference set, count: 3
| item smiles | measurement name | result |
| --- | --- | --- |
| OCCN(CCO)CCO | mass density | 1109.6 ± 0.32 kg/m3 |
| NCCO | mass density | 996.029 ± 0.23 kg/m3 |
| CN(CCO)CCO | mass density | 1022.53 ± 0.88 kg/m3 |

**Q:** Could you tell me which mass density is on file for `CC(C)(N)CO` ?
**A:** 915.702 ± 4.6 kg/m3
